# Test system: Fam108B (ABHD17B) serine hydrolase [Mus musculus]
# assay-notes: mouse Fam108B serine hydrolase inhibitors, primary screen, counter-screen for RBBP9 inhibitor project, biochemical, fluorescence polarization (AID 1947);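 further: inhibitors lower polarization as less probe binds the enzyme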
# stated-conditions: recombinant Fam108B, FP-Rh probe fluorescence polarization; at 9.51 µM
Hit rate of the full screen: of about 300,000 compounds, about 990 (0.33%) were called active.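 How the source made its calls: active means inhibition above the screen mean inhibition plus 3 SD, computed separately per campaign (cut at about 18% in these data); inactive means the rest.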 Many of the other results were omitted from the sample, so actives are more common in it than they were.
Reply using exactly one outcome from label 1 for active, label 0 for inactive

CCC/C(C)=N\Nc1nc2c(c(=O)n(C)c(=O)n2C)n1C | label 0
COc1ccc2nc(NC(=O)c3ccc(Br)s3)sc2c1 | label 0
O=C(CCn1c(SCC(=O)c2ccccc2)nc2ccccc2c1=O)NCc1ccc(F)cc1 | label 1
CC(C)C(=O)N1CCC2(CC1)Oc1ccc(F)cc1C(=O)C21CC(c2ccccc2)=NO1 (stereo not given) | label 0

Field: outcome | Entry: `N#CCC(=O)N/N=C/c1cn(Cc2ccc3ccccc3c2)c2ccccc12`
label 0
